# Assay details: chemical genetic growth profiling, strain panel (AID 1159580);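 further: tested at 20 µM; growth read once vehicle control cultures reached saturation at 30 °C; 1 = growth at the plate median or of vehicle wells; lower values mean less growth of the strain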
# Applied conditions: S. cerevisiae deletion strains, growth OD, locus YJL092W, strain hpr5, stronger effect = lower value
In all, about 5,500 compounds went through this assay and about 2,000 (36%) were called active. Not shown: some 18% with an inconclusive outcome. Some of the results follow.
Readout type: normalized growth
The answer should be a number; do not append a unit.

Here is how some molecules turned out for normalized growth.
C[C@H](COc1ccccc1)N[C@H](C)[C@H](O)c1ccc(O)cc1    0.992
CCOC(=O)C1=C[C@]2(CC)CCCN3CCc4c(n1c1ccccc41)[C@@H]32    1.02
CCn1cc(C(=O)O)c(=O)c2cc3c(cc21)OCO3    0.981
COc1ccc(C[C@H](N)C(=O)N[C@@H]2[C@@H](CO)OC(n3cnc4c(N(C)C)ncnc43)[C@@H]2O)cc1 (stereo not given in full)    0.988

Asked: Quick one: normalized growth for "CC1=C(/C=C/C(C)=C/C=C/C(C)=C/C(=O)O)C(C)(C)CCC1" ?
Given back: 0.988

---

# Assay details: chemical genetic growth profiling, strain panel (AID 1159580)
# Applied conditions: S. cerevisiae deletion strains, growth OD, locus YMR263W, strain SAP30
Among all 5,500 compounds or so, about 2,000 (36%) were called active. Roughly 18% stayed inconclusive and do not appear here. Cut-off read from the data, not from the text of the source: active = normalized growth mostly below about 0.91 (no sharp cut-off); inconclusive = no clear call, values can overlap the other calls; inactive = mostly above about 0.92. Some of the results follow.
Pick one: active, inactive

These solved cases illustrate the format of a correct answer.
O=c1cccc2n1C[C@H]1CNCC2C1    inactive
COc1cccc(-c2cc(=O)c3ccccc3o2)c1N    inactive
C[C@@H]1C[C@@H]([C@H](O)CC2CC(=O)NC(=O)C2)C(=O)[C@@H](C)C1    active
O=C1CN(/N=C\c2ccc([N+](=O)[O-])o2)C(=O)N1    inactive
COS(C)(=O)=O    inactive
COc1ccccc1NC(=O)N1CCCN(C(=O)c2cccs2)CC1    inactive
Fc1cccc(Cl)c1Cn1nnc(N2CCCCC2)n1    inactive
N/C(=N\OC(=O)c1ccno1)c1ccc(C(F)(F)F)cc1    inactive
NC(N)=NOCCC(N)C(=O)O (stereo unspecified)    inactive
CC(=O)C1=C(O)C2C3c4c[nH]c5cccc(c45)CC3C(C)(C)N2C1=O (stereo unspecified)    inactive

Asked: Recorded test call requested for CC[C@@]1(C2O[C@@H](C3O[C@@](O)(CC)[C@H](C)C[C@@H]3C)C[C@@H]2C)CC[C@H]([C@]2(C)CCC3(C[C@H](O)[C@@H](C)[C@@H]([C@H](C)[C@@H](OC)[C@H](C)C(=O)O)O3)O2)O1 (stereo partly specified)
Given back: inactive

Asked: And the next one, COc1ccc(C[C@H](N)C(=O)N[C@@H]2[C@@H](CO)OC(n3cnc4c(N(C)C)ncnc43)[C@@H]2O)cc1 (stereo partly specified) ?
Given back: inactive

Asked: Can you check "O=S(=O)(c1cc(Br)c(Br)s1)N1CCCCC1" next?
Given back: inactive

Asked: Same for "CCC(=O)N1CCN(C(=O)c2ccccc2)CC1"
Given back: inactive

Asked: Please give the result for OCC(S)CS (stereo unspecified) too.
Given back: inactive

Asked: How about this molecule: "O=C(O)c1cc(=O)c(O)c2c(O)c(O)ccc2c1"
Given back: inactive

Asked: Check "COP(=S)(OC)Oc1ccc(SC)c(C)c1" too.
Given back: inactive

Asked: Try this molecule next: "CC(C)(C)c1nc(N)sc1Br"
Given back: inactive

Asked: Repeat with "O=C(c1ccc2c(c1)OCCO2)N1CCCCC1"
Given back: inactive

Asked: Same question for "CC(C)(C)OC(=O)N1CCN(Cc2ccccc2)CC1" please.
Given back: inactive

Asked: Proceed to "ON(Cc1c(F)cccc1Cl)Cc1c(F)cccc1Cl"
Given back: inactive

Asked: COc1cc2c(cc1O)CC1c3c(cc(O)c(OC)c3-2)CCN1C (stereo unspecified) , same question.
Given back: inactive

Asked: Now this one: CO[C@@H]1C[C@@H](C[C@H]2CC[C@H](C)[C@H]([C@@H](C)C(=O)O)O2)O[C@]2(O[C@](C)([C@H]3CC[C@@](C)(C4O[C@@H](C5O[C@@](O)(CO)[C@H](C)C[C@@H]5C)C[C@@H]4C)O3)C[C@H]2C)[C@@H]1C (stereo partly specified)
Given back: inactive

Asked: // same read-out, input: "O=C(O)CCNC(=S)Nc1cccc(C(F)(F)F)c1"
Given back: inactive

Asked: Also, CC(=O)Oc1cc(C)c2c(c1C(OC(C)=O)OC(C)=O)Oc1c(c(C)c(OC(C)=O)c3c1C(OC(C)=O)OC3=O)OC2=O (stereo unspecified) please.
Given back: inactive

Asked: What would you report for "O=C(O)CCC(=O)c1ccc(-c2ccccc2)cc1" ?
Given back: inactive

Asked: How about this molecule: "O=C(CCCCCCCCC(=O)c1ccccc1)c1ccccc1"
Given back: inactive

Asked: Input Cc1cccc(CN2CCN(C(c3ccccc3)c3ccc(Cl)cc3)CC2)c1 (stereo unspecified)
Given back: active

Asked: Try this molecule next: "CSc1nc2ccc(NC(=O)c3c(-c4ccccc4)noc3C)cc2s1"
Given back: inactive

Asked: And then "O=C(CCN1CCOCC1)c1ccc2c(c1)OCCO2" , what is it?
Given back: inactive

Asked: Field entry: "C[C@@]12C(=O)OC(=O)[C@]1(C)C1CCC2O1"
Given back: active

---

# Assay details: chemical genetic growth profiling, strain panel (AID 1159580)
# Applied conditions: S. cerevisiae deletion strains, growth OD, locus YLR371W, strain rom2, stronger effect = lower value
Out of some 5,500 compounds screened, about 2,000 (36%) were called active. Roughly 18% stayed inconclusive and do not appear here. The list shows a part of the results.
Readout type: normalized growth
API note: the answer field is a bare number with no unit suffix.

Asked: Given "COc1ccccc1N1CCNCC1" , state its recorded normalized growth.
Given back: 1.03

Asked: Now this one: "O=C1CN(/N=C\c2ccc([N+](=O)[O-])o2)C(=O)N1"
Given back: 1.01

---

// reported normalized growth per item
# Assay details: chemical genetic growth profiling, strain panel (AID 1159580);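 further: tested at 20 µM; growth read once vehicle control cultures reached saturation at 30 °C; 1 = growth at the plate median or of vehicle wells; lower values mean less growth of the strain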
# Applied conditions: S. cerevisiae deletion strains, growth OD, locus YNL224C, strain SQS1, stronger effect = lower value
About 2,000 (36%) of roughly 5,500 compounds were called active. Not shown: some 18% with an inconclusive outcome. This is one part of the list.
Provide a numeric answer; units are not to be included.

Here are 2 compounds together with their reported answers.
CCn1cc(C(=O)O)c(=O)c2cc3c(cc21)OCO3    0.972
NC(=O)c1cnccn1    0.991

Asked: Sample "COc1cc2c(cc1C(F)(F)F)N(C(=O)Nc1cc(F)cc(-c3cccnc3)c1)CC2" — what was its normalized growth?
Given back: 1.02

Asked: Entry to check: "O=C(O)CP(=O)(O)O"
Given back: 0.993

Asked: Also check "COc1ccccc1N1CCNCC1"
Given back: 0.994

Asked: Please give the result for "CCCn1c(=O)c2[nH]c(-c3ccc(OCC(=O)NCCN)cc3)nc2n(CCC)c1=O" too.
Given back: 0.999

Asked: Item: "C[C@H](Cc1ccc2c(c1)OC(C(=O)O)(C(=O)O)O2)NC[C@H](O)c1cccc(Cl)c1"
Given back: 1

---

# Assay details: chemical genetic growth profiling, strain panel (AID 1159580);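 further: tested at 20 µM; growth read once vehicle control cultures reached saturation at 30 °C; 1 = growth at the plate median or of vehicle wells; lower values mean less growth of the strain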
# Applied conditions: S. cerevisiae deletion strains, growth OD, locus YBR021W, strain FUR4, stronger effect = lower value
About 2,000 (36%) of roughly 5,500 compounds were called active. Inconclusive results (about 18%) are left out. The list shows a part of the results.
Decide using normalized growth alone. Strictly below 1: yes (1). Equal to or above 1: no (0).

O=C(O)CCC(=O)c1ccc(-c2ccccc2)cc1    yes (1)
CN(Cc1cc(Br)cc(Br)c1N)C1CCCCC1    yes (1)

Here is another molecule to look at.
Asked: Please indicate whether the reported normalized growth of "O=C(O)c1cc(O)c(O)c(O)c1" is strictly below 1.
Given back: no (0)

---

# Assay details: chemical genetic growth profiling, strain panel (AID 1159580);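 further: tested at 20 µM; growth read once vehicle control cultures reached saturation at 30 °C; 1 = growth at the plate median or of vehicle wells; lower values mean less growth of the strain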
# Applied conditions: S. cerevisiae deletion strains, growth OD, locus YML032C, strain rad52, stronger effect = lower value
Among all 5,500 compounds or so, about 2,000 (36%) were called active. About 18% were inconclusive and are not listed. The list shows a part of the results.
Entries and their measured normalized growth follow.
When you answer, write just the number.

Study these solved cases before continuing.
CC1=C(/C=C/C(C)=C/C=C/C(C)=C\C(=O)O)C(C)(C)CCC1    0.978
O=C1O[C@@H](CO)[C@H](O)[C@@H](O)[C@@H]1O    0.991
CC(Cc1ccc(O)c(O)c1)(NN)C(=O)O (centres undefined)    1.01
CC1=C(/C=C/C(C)=C/C=C/C(C)=C/C=C/C=C(C)/C=C/C=C(C)/C=C/C2=C(C)CCCC2(C)C)C(C)(C)CCC1    1
CCOC(N)=O    1.02
CC1(C)C2CC(=O)O[C@@]3(C)C4=CC(=O)O[C@@H](c5ccoc5)[C@]4(C)CCC3[C@@]2(C)C=C[C@H]1O (some centres undefined)    1
CN(Cc1cnc2nc(N)nc(N)c2n1)c1ccc(C(=O)NC(CCC(=O)O)C(=O)O)cc1 (centres undefined)    0.986
O=C(O)CCCCCCCCCCCCC1C=CCC1 (centres undefined)    0.977

Asked: Request the reported normalized growth associated with "Nc1nc2ncc(CNc3ccc(C(=O)N[C@@H](CCC(=O)O)C(=O)O)cc3)nc2c(=O)[nH]1"
Given back: 0.985

The values you see were collected from PubChem BioAssay AID1159580.
